EXPERIMENTAL_SYSTEM: MAGL (Homo sapiens)
Construct: Proteomes (human prefrontal cortex or cell membrane fractions); from tissue
Sequence (Q99685 whole entry): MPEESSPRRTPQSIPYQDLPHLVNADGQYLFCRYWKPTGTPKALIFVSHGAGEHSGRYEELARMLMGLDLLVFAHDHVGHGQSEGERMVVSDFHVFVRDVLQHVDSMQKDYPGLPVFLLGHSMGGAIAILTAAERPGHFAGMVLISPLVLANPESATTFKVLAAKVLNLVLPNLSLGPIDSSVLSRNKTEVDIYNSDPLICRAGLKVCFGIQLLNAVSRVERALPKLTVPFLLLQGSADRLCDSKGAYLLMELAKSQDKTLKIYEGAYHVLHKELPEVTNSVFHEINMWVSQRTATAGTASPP
ASSAY_INFO: In vitro competitive activity-based protein profiling (gel-based, FP-Rh or HT-01 probe)
Assay type: biochemical
PROTOCOL_CONDITIONS: PC3 proteome, read-out: IC50 MGLL PC3 (Human)
Provide the reported IC50 of each item.

// known answers, use as guide
| COMPOUND | EXPERIMENTAL_SYSTEM | MEASURED_VALUE |
| --- | --- | --- |
| CC1(C(=O)O)CN(c2cc(C(F)(F)F)ccc2CN2CC3(CCN(C(=O)OC(C(F)(F)F)C(F)(F)F)CC3)C2)CCO1 (stereo not drawn) | MAGL (Homo sapiens) | < 0.1 µM |
| O=C(O)C1CCCCN1c1cc(CN2CC3(CCN(C(=O)OC(C(F)(F)F)C(F)(F)F)CC3)C2)cc(C(F)(F)F)c1 (stereo not drawn) | MAGL (Homo sapiens) | < 0.1 µM |

Note: attention shifts to another entry.
Ask: What value of IC50 has been reported for the following compound? CN(Cc1ccc(C(F)(F)F)cc1N1CCN(CC(=O)O)CC1)C1(C)CCN(C(=O)OC(C(F)(F)F)C(F)(F)F)CC1
Reply: < 0.1 µM

====

EXPERIMENTAL_SYSTEM: MGLL (Mus musculus)
Sequence (O35678 1-303): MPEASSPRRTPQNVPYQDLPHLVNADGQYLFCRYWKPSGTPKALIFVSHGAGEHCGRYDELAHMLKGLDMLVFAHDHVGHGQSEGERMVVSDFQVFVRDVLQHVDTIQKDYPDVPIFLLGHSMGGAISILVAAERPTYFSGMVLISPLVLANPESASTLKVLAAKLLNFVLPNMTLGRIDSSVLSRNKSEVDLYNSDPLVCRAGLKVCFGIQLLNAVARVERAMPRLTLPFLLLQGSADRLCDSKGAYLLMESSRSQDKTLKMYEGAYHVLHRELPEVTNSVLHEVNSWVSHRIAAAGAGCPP
Hi there, I'd appreciate the recorded IC50 for every entry that follows.

| COMPOUND | MEASURED_QUANTITY | MEASURED_VALUE |
| --- | --- | --- |
| O=C(OC(C(F)(F)F)C(F)(F)F)N1CCC2(CC1)CN(Cc1c(Cl)cccc1N1CCN(C3CC3)CC1)C2 [Example 58] | IC50 | < 100 nM |
| O=C(OC(C(F)(F)F)C(F)(F)F)N1CCC2(CCN(Cc3cccc(Cl)c3N3CCCC3)CC2)C1 [Example 171] | IC50 | < 100 nM |
| CS(=O)(=O)N1CCC2(CCN(c3cc(Cl)ccc3CN3CCN(C(=O)OC(C(F)(F)F)C(F)(F)F)CC3)CC2)C1 [Example 174] | IC50 | < 100 nM |

Take each entry in turn and give its IC50.
1. CC(=O)N1CCCC12CCN(c1cc(C(F)(F)F)ccc1CN1CCN(C(=O)OC(C(F)(F)F)C(F)(F)F)CC1)CC2 [Example 208]
2. CCN1CCC2(CCN(c3cc(Cl)ccc3CN3CCN(C(=O)OC(C(F)(F)F)C(F)(F)F)CC3)CC2)C1 [Example 170]
3. CS(=O)(=O)N1CC2CN(c3cc(Cl)ccc3CN3CCN(C(=O)OC(C(F)(F)F)C(F)(F)F)CC3)CC2C1 (stereo not shown) [Example 203]
4. CN1CCCC12CCN(c1cc(Cl)ccc1CN1CCN(C(=O)OC(C(F)(F)F)C(F)(F)F)CC1)CC2 [Example 214]

Reply:
["100 to 1000 nM", "100 to 1000 nM", "100 to 1000 nM", "100 to 1000 nM"]
